tested on: Cyperus serotinus, Rottb.; assay: Preemergence weed control under flooded paddy conditions, CYPSE (Flatsedge); format: in vivo; details: 0.0320 kg/ha, preemergence weeds, herbicidal effect rating 0-9, three to four weeks after treatment
Label Yes when CYPSE is at or above 2; anything below gets No.

Evaluate CCC(C#N)c1nsc2ccc(-n3c(=O)cc(C(F)(F)F)n(C)c3=O)cc12 (stereo not shown) : CYPSE at minimum 2? Yes

Determine whether measured CYPSE meets or exceeds 2 for CC(=O)OCCCSC(SCCCOC(C)=O)c1nsc2ccc(-n3c(=O)cc(C(F)(F)F)n(C)c3=O)cc12 No

API: above_or_equal(metric=CYPSE, cutoff=2) for item CCC(C#N)(CC)c1nsc2ccc(-n3c(=O)cc(C(F)(F)F)n(C)c3=O)cc12 Yes

Please indicate if the recorded CYPSE for CCOC(=O)c1nsc2cc(F)c(-n3c(=O)cc(C(F)(F)F)n(C)c3=O)cc12 meets or exceeds 2. Yes

// inclusive: CYPSE at least 2? input: Cc1ccsc1C=C(C#N)c1nsc2ccc(-n3c(=O)cc(C(F)(F)F)n(C)c3=O)cc12 No

Could you please find out whether COC(OC)c1nsc2ccc(-n3c(=O)cc(C(F)(F)F)n(C)c3=O)cc12 has CYPSE that meets 2 or exceeds it? Yes

Please tell me: is the molecule CCOCN(C(=O)c1nsc2ccc(-n3c(=O)cc(C(F)(F)F)n(C)c3=O)cc12)S(=O)(=O)Cc1ccccc1 at or over 2 in terms of CYPSE? Yes

Has CN(/N=C/c1nsc2ccc(-n3c(=O)cc(C(F)(F)F)n(C)c3=O)cc12)c1ccccc1 a recorded CYPSE greater than or equal to 2? No

Item Cn1c(C(F)(F)F)cc(=O)n(-c2ccc3snc(C(Br)S(=O)(=O)c4ccccc4)c3c2)c1=O (stereo not shown) with CYPSE of 2 or above? No
